Recorded Ki for compounds tested on Protease (Human immunodeficiency virus 1), drawn from a number of studies.

Q: Looking for the measured Ki of CC1(C)CC(=O)C2=C(C1)Nc1ccccc1N(C(=O)C(=O)N1CC3=C(CC(C)(C)CC3=O)Nc3ccccc31)C2 , can you help?
Result: ≤ 0.012 µM

Q: Looking for the measured Ki of CNC(=O)[C@@H](NC(=O)[C@](O)(CCCN(Cc1ccc(Br)cc1)NC(=O)[C@@H](NC(=O)OC)C(C)(C)C)Cc1ccccc1)C(C)(C)C , can you help?
Result: > 5 µM

Q: Looking for the measured Ki of COC(=O)N[C@H](C(=O)NN(CC[C@](O)(Cc1ccccc1)C(=O)N[C@H]1c2ccccc2C[C@H]1O)Cc1ccc(Br)cc1)C(C)(C)C , can you help?
Result: > 5 µM
